Recorded activity change for the following compounds
# PROCEDURE DETAILS: qHTS for Inhibitors of Inflammasome Signaling: IL-1-beta AlphaLISA Primary Screen; note: % is set by controls: 0 for no effect and ±100 for the full control effect
# ASSAY CONDITIONS: THP-1 LPS/ATP IL-1B secretion, 16 h; at 57.5 µM, stronger effect = lower value
The whole screen tested about 360,000 compounds, of which about 17,000 (4.7%) were called active. About 5% were inconclusive and are not listed. This is one part of a sample in which actives are shown more often than they occur.
METRIC: activity change (%)

> print(dat)
                                    compound           metric  value.reported
 1  Cc1ccccc1CS(=O)(=O)CC1(O)CCN(C(=O)c2cccc(C(F)(F)F)c2)CC1  activity change             9.6
 2  COc1ccccc1-c1nn(Cc2ccccc2)cc1C(=O)N1CCN(c2ncccn2)CC1  activity change            1.02
 3  COc1ccc(S(=O)(=O)N2CCCCCC2)cc1C(=O)N(C)Cc1cccc(OC)c1OC  activity change           -8.59
 4  Cc1[nH]c2ccccc2c1C(=O)C(=O)NCc1nnnn1-c1cccc(F)c1  activity change            10.9
 5  Cc1cccc(N2CCN(C(=O)c3cccc(N4C(=O)C5C6C=CC(C6)C5C4=O)c3)CC2)c1C (stereo not drawn)  activity change           -52.9
 6  Cc1ccc(NC(=O)CN(C)C(=O)c2cccc(S(=O)(=O)N3CCCC3)c2)cc1  activity change            8.98
 7  CC(NCc1nc2ccccc2n1C)C12CC3CC(CC(C3)C1)C2 (stereo not drawn)  activity change           -94.3
 8  CCCNC(=O)C[C@@H]1CC[C@@H]2[C@H](COC[C@H](O)CN2C(=O)c2cc(Cl)cc(Cl)c2)O1  activity change              35
 9  C=C(C)COc1ccc(-c2ncncc2-c2ccc(OC)cc2)c(O)c1  activity change           -58.4
10          CSC1=NN(c2ccccc2)CN(c2ccccc2)N1C  activity change           -27.8
11  CC1(C)CN(CCc2ccccc2)C(=O)[C@H]1CC(=O)Nc1ccc(Br)cc1  activity change               0
12  C[C@@H]1CN([C@H](C)CO)S(=O)(=O)c2ccc(C#CC3CCCCC3)cc2O[C@H]1CN(C)C(=O)Cc1ccncc1  activity change           -1.14
13  CN1CCOC1c1ccc(C2OCCN2C)cc1 (stereo not drawn)  activity change             5.1
14  Cc1ccc2c(c1)C(c1ccccc1)N(C(=O)c1ccc(F)cc1)CC(=O)N2 (stereo not drawn)  activity change            22.3
15  Cc1nnc(NC(=O)CSc2nc(C3CCCCC3)nc3ccccc23)s1  activity change           -0.35
16  O=C1CSC(=S)N1/N=C/c1ccc(O)c([N+](=O)[O-])c1  activity change            23.5
17  CCOc1cc(/C=C(/C#N)c2ccc(Cl)cc2)cc(Cl)c1OCC(=O)O  activity change            31.7
18  COC(=O)c1ccc2nc(-c3ccc(C)cc3)c(Cc3ccc(OC)cc3C)n2c1  activity change              16
19  C=C(C)COc1ccc(-c2nc(N)ncc2-c2ccccc2OC)c(O)c1  activity change           -26.4
20  CC(Nc1ccc([N+](=O)[O-])cc1[N+](=O)[O-])c1ccccc1 (stereo not drawn)  activity change            5.52
21  COc1ccc2sc(-c3ccc(N(C)C)cc3)c(-c3ccc4cc[nH]c4c3)c2c1  activity change           -13.1
22  Cc1cn([C@H]2C[C@H](O)[C@@H](CNC(=O)[C@H](N)Cc3cccnc3)O2)c(=O)[nH]c1=O  activity change            11.3
23  CSc1ccc(CN2CCC2(C)C(=O)Nc2ccc(C)c(O)c2)cc1 (stereo not drawn)  activity change           -13.3
24        COc1ccc(CSc2nnnn2-c2ccc(O)cc2)cc1F  activity change           -64.2
25              Cc1ccc(CNC(=O)c2cccnc2Cl)cc1  activity change            55.4
26    COc1ccc(CSc2nnnn2-c2ccc(C(=O)O)cc2)cc1  activity change            -2.8
27  COc1cc(C)c(CN2CCN(C(=O)CCC(=O)c3ccc(C)s3)CC2)cc1OC  activity change           -4.16
28                       Nc1nc2cc(Cl)ccc2n1N  activity change            32.9
29  O=C(Cc1ccc([N+](=O)[O-])cc1)NCCS(=O)(=O)N1CCN(c2ccccc2)CC1  activity change            16.3
30  O=C(c1cccs1)N1C[C@H](n2cc(C3CC3)nn2)[C@@H](O)C[C@@H]1c1ccccc1  activity change           0.261
31    CCCS(=O)(=O)Nc1ccc(-c2cn3c(n2)SCC3)cc1  activity change           -1.84
32  CC1C=CCC2C(=O)N(c3cccc(C(=O)N4CCCCCC4)c3)C(=O)C12 (stereo not drawn)  activity change            23.7
33             CC(C)(c1ccccc1)c1ccc(OCCN)cc1  activity change           -93.8
34  COCc1cccc(-c2csc(C(O)c3ccc(F)cc3)n2)c1 (stereo not drawn)  activity change           -9.62
35   CCOC(=O)CNc1nc(Cl)nc(Nc2ccc(OC)cc2OC)n1  activity change           -6.02
36  COC(=O)CCCCC1=CCC2C(=O)C=C(O)C2C1 (stereo not drawn)  activity change            46.8
37  COc1ccc(-c2nc(N)ncc2-c2ccc(Cl)cc2)c(O)c1  activity change           -11.3
38  COc1ccc2c(c1)c(=Cc1ccc(N(C)C)cc1)c1cc(-c3ccccc3)[n+](C)n12  activity change            -118
39         CCCCCCCCn1c2c(c(=N)c3c1CCC3)CCCC2  activity change           -89.8
40  CC(=O)N1c2ccc(S(=O)(=O)N3CCCC(C(=O)NCc4ccc(Cl)cc4)C3)cc2CC1C (stereo not drawn)  activity change           -22.7
41  CCN(CC)S(=O)(=O)c1ccc(NC(=O)c2cnc(C)cn2)cc1  activity change              57
42  CCCCCNC(=O)C1C(=O)Nc2ccccc2C(=O)N1C(C)(C)C (stereo not drawn)  activity change            6.47
43  O=C(CSc1nc(C2CC2)nc2ccccc12)Nc1cccc(O)c1  activity change            2.55

Where do the numbers come from? From PubChem BioAssay AID743279.
